Tested on: MS2 coat protein
TEST DETAILS: apparent KD of MS2 coat protein; designed switch direction (-1 OFF switch, 1 ON switch): -1; higher = weaker reporter binding
CONDITIONS USED: Eterna round: R95; input ligand: microRNA oligo, concentration not stated
PROPERTY: apparent KD of MS2 coat protein
A bare number is not enough; add the unit after it.

The cases that follow already have their apparent KD of MS2 coat protein on record.
GAUUAUGCGAGCUUUAGGGACAUGAGGAUCACCCAUGUUCGUCUUAUUAAUCUGGGUACACUAACAUACCUAAAUCU [JMF 9] (puzzle: Sensor v3, turn-off variant 1) | 47.2 nM
CAGCCUUGAGUUAGGAUAUGCGAUCGUGUAGACGAGCAGAAGGGACAUGAGGAUCACCCAUGUGAAAUAAUUAA [Begeti] (puzzle: Brourd's mod of Exclusion 4) | 13.2 nM
CCAGGCAGUGUGAGGAUAUCGUGGUCCUUGGAUCACGAGAAGGCACAUGAGGAUCACCCAUGUGAAUAGCUUGG [Mat - Exclusion 4 - JL Mod - D100] (puzzle: Brourd's mod of Exclusion 4) | 21.9 nM
GAAAAGGUAGGAUAUACGAAAAAAAAGGGUAGAAAAGAAACACAUGAGGAUCACCCAUGUAGAAGGACCAAAAG [salish99_ex2_r3_016] (puzzle: Exclusion 2) | 27.8 nM

--- query ---
So, ACAAGCUUUUUGCUCGUCUACAUGAGGAUCACCCAUGUAGUGAGAUAGUGGUGAAGAUAGAAUGAGCGUAGUAGGUA [JR_SV3TOV1_Sub070] (puzzle: Sensor v3, turn-off variant 1) ? Its apparent KD of MS2 coat protein was 34.1 nM

Hello, the source for this data is the supplement of paper PMC9170038, in case you need it.
